Entry source: patent US20100261710A1

target: HDAC5 (Homo sapiens); assay: HDAC isoform assay, HDAC5
pIC50: −log10 of the molar value.
We use 7 as the dividing line for pIC50: on or above the line is satisfied, below is not satisfied.

Observe how each entry below is paired with its result.
O=C(CCCCCCNC(=O)Nc1cn2c3c(cccc13)CCC2)NO
not satisfied
O=C(CCCCCCNC(=O)C(=O)c1cn2c3c(cccc13)CCC2)NO
not satisfied
O=C(CCCCCNC(=O)Nc1cn2c3c(cccc13)CCC2)NO
not satisfied

Please turn your attention to the following entry.
State whether the measured pIC50 reaches 7, counting equality as reaching it, for O=C(NO)c1ccc(CNC(=O)c2cn3c4c(cccc24)CCC3)cc1
satisfied

---

This listing pairs molecules with measured pIC50.
molecular target: HDAC1 (Homo sapiens); construct: cell extract containing HDAC (HeLa in these experiments); endogenous in cells; assay: HDAC-1 immunocapture fluorescent biochemical assay (HeLa lysate); settings: HDAC1 immunocaptured from HeLa extract
Sequence (Q13547 whole entry): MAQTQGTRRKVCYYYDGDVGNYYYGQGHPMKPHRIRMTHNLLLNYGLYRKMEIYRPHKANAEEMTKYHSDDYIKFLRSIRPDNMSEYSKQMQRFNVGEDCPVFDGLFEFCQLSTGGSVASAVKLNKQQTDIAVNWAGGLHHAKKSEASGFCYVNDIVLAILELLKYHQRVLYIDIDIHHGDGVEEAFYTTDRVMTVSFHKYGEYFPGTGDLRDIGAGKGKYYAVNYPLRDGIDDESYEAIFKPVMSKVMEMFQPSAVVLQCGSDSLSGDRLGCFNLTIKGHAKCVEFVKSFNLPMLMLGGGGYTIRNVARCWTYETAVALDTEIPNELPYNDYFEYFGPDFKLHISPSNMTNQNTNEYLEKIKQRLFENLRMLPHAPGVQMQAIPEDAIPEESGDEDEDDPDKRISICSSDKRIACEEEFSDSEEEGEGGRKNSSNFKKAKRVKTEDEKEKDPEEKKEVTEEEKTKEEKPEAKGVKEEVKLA
pIC50 here: minus log base 10 of the concentration, concentration in moles per litre.

O=C(CCCCCNC(=O)C(=O)c1cn2c3c(cccc13)CCC2)NO
7.35
O=C(CCCCCCNC(=O)c1cc2cccc3c2n1CCC3)NO
7.77

Could you tell me which pIC50 is on file for O=C(CCCCCNC(=O)c1cn2c3c(cccc13)CCC2)NO ?
7.88

Please give the measured pIC50 for this molecule: CC(C)(C)OC(=O)N1CCn2cc(C(=O)NCc3ccc(C(=O)NO)cc3)c3cccc(c32)C1
6.31

Given the molecule O=C(CCCNC(=O)C(=O)c1cn2c3c(cccc13)CCC2)NO , what is its reported pIC50?
6.23

---

biological target: HDAC5 (Homo sapiens, UniProt Q9UQL6); experiment: HDAC isoform assay, HDAC5
Sequence (Q9UQL6 whole entry, canonical isoform): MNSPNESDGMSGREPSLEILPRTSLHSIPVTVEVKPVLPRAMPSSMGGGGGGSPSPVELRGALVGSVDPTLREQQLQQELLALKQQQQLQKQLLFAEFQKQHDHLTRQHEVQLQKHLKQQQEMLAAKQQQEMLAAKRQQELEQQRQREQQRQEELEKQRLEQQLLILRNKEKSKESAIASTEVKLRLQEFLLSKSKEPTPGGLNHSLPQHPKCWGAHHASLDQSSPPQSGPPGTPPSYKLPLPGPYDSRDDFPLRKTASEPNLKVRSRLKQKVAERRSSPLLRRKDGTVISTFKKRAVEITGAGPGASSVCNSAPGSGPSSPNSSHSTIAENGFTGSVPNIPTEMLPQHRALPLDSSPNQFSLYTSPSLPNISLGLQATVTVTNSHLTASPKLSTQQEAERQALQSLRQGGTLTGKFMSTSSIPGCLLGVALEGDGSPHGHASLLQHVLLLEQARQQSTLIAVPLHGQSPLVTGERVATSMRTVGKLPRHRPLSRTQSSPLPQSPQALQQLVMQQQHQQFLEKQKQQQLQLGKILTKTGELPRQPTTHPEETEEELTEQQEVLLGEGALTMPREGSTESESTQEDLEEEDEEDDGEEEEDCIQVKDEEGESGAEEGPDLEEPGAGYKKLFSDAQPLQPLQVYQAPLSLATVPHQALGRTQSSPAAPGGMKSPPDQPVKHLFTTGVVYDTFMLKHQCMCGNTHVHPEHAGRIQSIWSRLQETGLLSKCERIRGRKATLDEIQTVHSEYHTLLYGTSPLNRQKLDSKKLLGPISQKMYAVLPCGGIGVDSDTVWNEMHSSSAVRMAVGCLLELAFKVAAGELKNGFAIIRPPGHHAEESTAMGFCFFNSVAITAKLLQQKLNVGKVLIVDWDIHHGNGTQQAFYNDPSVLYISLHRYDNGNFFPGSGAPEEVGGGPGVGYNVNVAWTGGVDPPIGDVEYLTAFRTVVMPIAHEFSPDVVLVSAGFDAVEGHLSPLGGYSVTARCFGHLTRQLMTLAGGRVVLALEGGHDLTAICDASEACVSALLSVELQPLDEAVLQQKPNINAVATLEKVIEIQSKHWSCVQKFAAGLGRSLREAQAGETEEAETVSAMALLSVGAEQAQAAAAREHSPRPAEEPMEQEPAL
OBSERVED PROPERTY: IC50 (nM)
Field: numeric (nM). Do not append units.

What IC50 value was documented for this molecule, O=C(CCCCCNC(=O)C(=O)c1cn2c3c(cccc13)CCC2)NO ?
163

Recorded IC50 of O=C(CCC1CCN(C(=O)c2cn3c4c(cccc24)CCC3)CC1)NO , please.
91.5

Which IC50 reading was recorded for the molecule O=C(CCCCCNC(=O)c1cn2c3c(cccc13)CCC2)NO ?
91.1

Could you tell me which IC50 is on file for O=C(CCCCCCNC(=O)c1cn2c3c(cccc13)CCC2)NO ?
95
